Each record here notes measured EC50.
study.target: FXR (Homo sapiens, UniProt Q96RI1)
Construct: using a full length FXR on a natural response element; expressed in transfected cells
protocol.details: cell-based transcription assay, FXR responsive promoter linked to a luciferase reporter
measurement.parameters: Tables 1-15; FXR activation, cell-based reporter assay; read-out: EC50
Just the number please, in nM, no unit attached.

>>> value_observed("COC(=O)/C=C/c1cccc(N(Cc2ccc(/C=C/c3ccccc3)cc2)C(=O)NC(C)C)c1")
119
>>> value_observed("CCOc1cccc(-c2ccc(CN(C(=O)C(C)C)c3cccc(/C=C/C(=O)OC)c3)cc2)c1")
173

Request: Name the recorded EC50 for `COC(=O)/C=C/c1cccc(N(Cc2ccc(-c3c(OC)cccc3OC)cc2)C(=O)C2CCCCC2)c1` .
Result: 77

====

study.target: FXR (Homo sapiens, UniProt Q96RI1)
Construct: using a full length FXR on a natural response element; expressed in transfected cells
Sequence (Q96RI1 1-486): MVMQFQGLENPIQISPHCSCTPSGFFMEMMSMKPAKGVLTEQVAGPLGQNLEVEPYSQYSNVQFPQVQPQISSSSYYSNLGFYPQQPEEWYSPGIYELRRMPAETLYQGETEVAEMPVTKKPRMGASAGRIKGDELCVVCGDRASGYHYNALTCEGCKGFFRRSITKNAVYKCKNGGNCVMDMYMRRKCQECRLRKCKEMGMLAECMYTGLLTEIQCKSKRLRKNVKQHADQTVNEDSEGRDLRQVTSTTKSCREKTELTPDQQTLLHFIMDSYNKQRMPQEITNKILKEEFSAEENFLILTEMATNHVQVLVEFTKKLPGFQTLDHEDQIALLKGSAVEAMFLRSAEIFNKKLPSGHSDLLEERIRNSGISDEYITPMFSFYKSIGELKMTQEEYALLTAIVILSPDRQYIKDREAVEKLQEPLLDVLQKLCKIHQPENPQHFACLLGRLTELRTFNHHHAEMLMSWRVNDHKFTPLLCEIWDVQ
protocol.details: cell-based transcription assay, FXR responsive promoter linked to a luciferase reporter
measurement.parameters: cell-based reporter assay
readout: FXR activation (in words)

// solved cases for FXR activation (in words) follow
>>> value_observed("COC(=O)/C=C/c1cccc(N(Cc2ccc(-c3c(OC)cccc3OC)cc2)C(=O)C(C)C)c1 [Compound 257]")
"excellent activity"
>>> value_observed("COC(=O)/C=C/c1cccc(N(Cc2ccc(-c3ccc(SC)cc3)cc2)C(=O)C(C)C)c1 [Compound 216]")
"excellent activity"
>>> value_observed("CCOC(=O)/C=C/c1cccc(N(Cc2ccc3c(c2OC)OC(C)(C)C=C3)C(=O)C2CC2)c1 [Compound 30]")
"inactive"
>>> value_observed("COC(=O)/C=C/c1cccc(N(Cc2ccc(-c3ccc(C)cc3)cc2)C(=O)C2CCCCC2)c1 [Compound 235]")
"excellent activity"

Request: Given the entry COC(=O)/C=C/c1cccc(N(Cc2ccc(-c3ccc(N(C)C)cc3)cc2)C(=O)C2CCCCC2)c1 [Compound 259] , what FXR activation (in words) was observed with FXR (Homo sapiens, UniProt Q96RI1)?
Result: excellent activity

Request: Lookup COC(=O)/C=C/c1cccc(N(Cc2ccc(-c3ccc(SC)cc3)cc2)C(=O)C2CCCCC2)c1 [Compound 125]
Result: excellent activity

Request: Lookup COC(=O)/C=C/c1cccc(N(Cc2ccc3c(c2OC)OC(C)(C)C=C3)C(=S)C2CC2)c1 [Compound 83]
Result: inactive

Request: Lookup COC(=O)/C=C/c1cccc(N(Cc2ccc(/C=C/c3ccc(F)cc3)cc2)C(=O)C(C)C)c1 [Compound 205]
Result: excellent activity

Request: Lookup COC(=O)/C=C/c1cccc(N(Cc2ccc(-c3ccc(C)cc3)cc2)C(=O)C(C)C)c1 [Compound 236]
Result: excellent activity

====

study.target: FXR (Homo sapiens)
Construct: using a full length FXR on a natural response element; expressed in transfected cells
protocol.details: cell-based transcription assay, FXR responsive promoter linked to a luciferase reporter
measurement.parameters: Tables 1-15; FXR activation, cell-based reporter assay; read-out: EC50
Procedure: In addition to ensuring that only cell permeable compounds were selected for further optimization, this approach allows for the detection of FXR activation in a natural system (i.e., correct folding of the protein and in the presence of a complete compliment of co-activators and co-repressors). […] EC50 values were determined with Prism 3.0 software via the activity of the subject compound in the previously described cell based assay.
readout: log10 of EC50 (log10 of the value in nM)
Values reflect log10 of reported EC50 (nM).

// solved cases for log10 of EC50 follow
>>> value_observed("COC(=O)/C=C/c1cccc(N(Cc2ccc(-c3ccc4c(c3)OCO4)cc2)C(=O)NC(C)C)c1 [Compound 246]")
1.98
>>> value_observed("COC(=O)C=Cc1cccc(N(Cc2ccc(C=Cc3c(F)cccc3F)cc2)C(=O)C2CCCCC2)c1 [Compound 189]")
2.24
>>> value_observed("COC(=O)C=Cc1cccc(N(Cc2ccc(C=Cc3cccc(Cl)c3)cc2)C(=O)C2CCCCC2)c1 [Compound 180]")
2.22
>>> value_observed("COC(=O)/C=C/c1cccc(N(Cc2ccc(-c3ccc(N(C)C)cc3)cc2)C(=O)C(C)C)c1 [Compound 260]")
1.76
>>> value_observed("COC(=O)/C=C/c1cccc(N(Cc2ccc(-c3ccc(OC)cc3)cc2)C(=O)C(C)C)c1 [Compound 230]")
1.99

Request: Name the recorded log10 of EC50 for COC(=O)/C=C/c1cccc(N(Cc2ccc(/C=C/c3ccccc3)cc2)C(=O)C(C)C)c1 [Compound 198] .
Result: 1.81

====

study.target: FXR (Homo sapiens, UniProt Q96RI1)
Construct: using a full length FXR on a natural response element; expressed in transfected cells
Sequence (Q96RI1 1-486): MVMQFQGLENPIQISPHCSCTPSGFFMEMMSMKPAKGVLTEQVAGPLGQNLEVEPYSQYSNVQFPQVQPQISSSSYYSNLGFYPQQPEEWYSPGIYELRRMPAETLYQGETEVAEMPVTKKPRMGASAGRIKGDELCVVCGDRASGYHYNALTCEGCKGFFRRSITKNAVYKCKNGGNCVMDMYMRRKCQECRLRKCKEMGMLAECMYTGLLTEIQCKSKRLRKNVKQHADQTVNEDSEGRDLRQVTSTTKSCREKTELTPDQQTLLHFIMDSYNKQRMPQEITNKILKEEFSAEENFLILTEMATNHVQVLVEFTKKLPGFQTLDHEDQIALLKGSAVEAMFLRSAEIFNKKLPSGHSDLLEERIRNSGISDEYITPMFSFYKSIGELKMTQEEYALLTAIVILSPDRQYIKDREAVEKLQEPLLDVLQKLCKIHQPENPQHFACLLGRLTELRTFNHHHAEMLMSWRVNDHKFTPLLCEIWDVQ
protocol.details: cell-based transcription assay, FXR responsive promoter linked to a luciferase reporter
measurement.parameters: cell-based reporter assay
readout: FXR activation (in words)

>>> value_observed("COC(=O)/C=C/c1cccc(N(Cc2ccc(-c3ccc4c(c3)OCO4)cc2)C(=O)C2CCCCC2)c1 [Compound 244]")
"excellent activity"
>>> value_observed("COC(=O)C=Cc1cccc(N(Cc2ccc(C=Cc3c(F)cccc3F)cc2)C(=O)C2CCCCC2)c1 [Compound 189]")
"excellent activity"

====

Each record here notes measured pEC50.
study.target: FXR (Homo sapiens, UniProt Q96RI1)
Construct: using a full length FXR on a natural response element; expressed in transfected cells
protocol.details: cell-based transcription assay, FXR responsive promoter linked to a luciferase reporter
measurement.parameters: Tables 1-15; FXR activation, cell-based reporter assay; read-out: EC50
As a rule, pEC50 stands for the negative log10 of the concentration, concentration in M.

>>> value_observed("COC(=O)/C=C/c1cccc(N(Cc2ccc(-c3cccc(OC)c3)cc2)C(=O)C(C)C)c1 [Compound 224]")
7.14

Request: Name the recorded pEC50 for COC(=O)/C=C/c1cccc(N(Cc2ccc(-c3ccc(C)cc3)cc2)C(=O)C2CCCCC2)c1 [Compound 235] .
Result: 7.59

Request: Lookup COC(=O)C=Cc1cccc(N(Cc2ccc(C=Cc3scnc3C)cc2)C(=O)NC(C)C)c1 [Compound 212]
Result: 6.45

====

study.target: FXR (Homo sapiens, UniProt Q96RI1)
Construct: using a full length FXR on a natural response element; expressed in transfected cells
Sequence (Q96RI1 1-486): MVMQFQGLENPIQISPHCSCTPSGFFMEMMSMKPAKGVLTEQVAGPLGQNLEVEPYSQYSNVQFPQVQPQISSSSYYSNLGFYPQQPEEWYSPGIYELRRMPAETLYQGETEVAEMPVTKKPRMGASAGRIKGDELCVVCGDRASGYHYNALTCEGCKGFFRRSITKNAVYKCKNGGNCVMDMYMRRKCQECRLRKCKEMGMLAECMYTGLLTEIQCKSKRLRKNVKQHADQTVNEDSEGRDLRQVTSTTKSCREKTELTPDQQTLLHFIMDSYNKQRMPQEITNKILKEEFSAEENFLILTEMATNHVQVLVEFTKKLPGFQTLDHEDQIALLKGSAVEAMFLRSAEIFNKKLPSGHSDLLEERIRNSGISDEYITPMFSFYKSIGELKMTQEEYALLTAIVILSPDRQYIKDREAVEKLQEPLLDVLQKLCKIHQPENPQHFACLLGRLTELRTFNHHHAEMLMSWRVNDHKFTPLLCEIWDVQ
protocol.details: cell-based transcription assay, FXR responsive promoter linked to a luciferase reporter
measurement.parameters: cell-based reporter assay
readout: FXR activation (in words)

>>> value_observed("COC(=O)/C=C/c1cccc(N(Cc2ccc(-c3cccc(OC)c3)cc2)C(=O)C(C)C)c1 [Compound 224]")
"excellent activity"
>>> value_observed("COC(=O)/C=C/c1cccc(N(Cc2ccc(-c3ccc(F)c(F)c3)cc2)C(=O)C2CCCCC2)c1 [Compound 213]")
"excellent activity"
>>> value_observed("COC(=O)/C=C/c1cccc(N(Cc2ccc(-c3ccc(OC)cc3)cc2)C(=O)C2CCCCC2)c1 [Compound 229]")
"excellent activity"
>>> value_observed("COC(=O)/C=C/c1cccc(N(Cc2ccc(/C=C/c3ccccc3F)cc2)C(=O)C(C)C)c1 [Compound 193]")
"excellent activity"
>>> value_observed("COC(=O)/C=C/c1cccc(N(Cc2ccc(/C=C/c3cccc(F)c3)cc2)C(=O)C(C)C)c1 [Compound 202]")
"excellent activity"

Request: Name the recorded FXR activation (in words) for CNC(=O)/C=C/c1cccc(N(Cc2ccc3c(c2OC)OC(C)(C)C=C3)C(=O)C2CC2)c1 [Compound 38] .
Result: inactive

Request: Lookup COC(=O)/C=C/c1cccc(N(Cc2ccc(/C=C/C(=O)OC(C)(C)C)cc2)C(=O)C2CCC2)c1 [Compound 141]
Result: excellent activity

Request: Lookup COC(=O)/C=C/c1cccc(N(Cc2ccc(-c3ccc(N(C)C)cc3)cc2)C(=O)C(C)C)c1 [Compound 260]
Result: excellent activity

Where do these numbers come from? They come from patent US20060223879A1.
